Source listed as the supplement of paper PMC10065799.

system: Jak2 (UniProt O60674)
Sequence (O60674 whole entry, looked up): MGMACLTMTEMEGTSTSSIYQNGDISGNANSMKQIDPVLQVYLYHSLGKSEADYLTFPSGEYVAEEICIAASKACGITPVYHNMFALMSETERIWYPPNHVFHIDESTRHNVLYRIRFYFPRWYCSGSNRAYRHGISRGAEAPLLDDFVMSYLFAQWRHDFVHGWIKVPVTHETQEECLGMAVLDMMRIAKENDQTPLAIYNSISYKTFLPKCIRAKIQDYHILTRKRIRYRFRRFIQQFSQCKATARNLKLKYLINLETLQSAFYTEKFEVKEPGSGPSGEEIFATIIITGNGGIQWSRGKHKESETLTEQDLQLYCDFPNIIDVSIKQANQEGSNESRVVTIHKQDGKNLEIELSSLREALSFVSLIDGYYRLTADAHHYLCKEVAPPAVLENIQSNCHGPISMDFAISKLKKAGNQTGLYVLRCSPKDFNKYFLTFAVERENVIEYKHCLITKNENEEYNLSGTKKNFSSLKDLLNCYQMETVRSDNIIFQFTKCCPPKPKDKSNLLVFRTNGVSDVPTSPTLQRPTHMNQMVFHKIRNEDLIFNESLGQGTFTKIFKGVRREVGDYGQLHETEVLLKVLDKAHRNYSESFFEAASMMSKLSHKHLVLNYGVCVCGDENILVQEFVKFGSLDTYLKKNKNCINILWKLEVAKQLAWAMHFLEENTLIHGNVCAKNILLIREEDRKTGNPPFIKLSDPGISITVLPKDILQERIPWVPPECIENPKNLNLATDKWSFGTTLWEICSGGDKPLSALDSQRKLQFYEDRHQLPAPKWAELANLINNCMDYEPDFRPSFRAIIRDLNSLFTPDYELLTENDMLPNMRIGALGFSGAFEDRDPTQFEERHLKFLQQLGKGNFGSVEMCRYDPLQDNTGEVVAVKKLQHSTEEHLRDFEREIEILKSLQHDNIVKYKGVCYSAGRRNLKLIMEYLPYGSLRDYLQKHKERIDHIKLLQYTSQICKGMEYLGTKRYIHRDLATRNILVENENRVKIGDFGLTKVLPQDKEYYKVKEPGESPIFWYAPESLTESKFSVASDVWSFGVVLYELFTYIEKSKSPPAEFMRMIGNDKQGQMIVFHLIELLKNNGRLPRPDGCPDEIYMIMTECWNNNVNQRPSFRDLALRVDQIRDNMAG
experiment: phosphorylation enrichment, bacterial display (enrichment ratio); higher = better substrate or ligand; peptides without Tyr show the background;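 also: 11-residue human phosphosite peptides and single-mutation variants displayed on the E. coli surface, counted by deep sequencing, each peptide's frequency after selection divided by its frequency in the unselected input library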;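 also: frequency after pTyr selection over input frequency; kinase dosed for 20-30% of maximal phosphorylation in three min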
observed-property: phosphorylation enrichment
No unit in the answer, only the number.

Some sequences with recorded phosphorylation enrichment:
FADGVYQALEE [DUOX2_Y70_YF] yielded phosphorylation enrichment of 0.979

SVSVNYGDQVQ [GRAP_Y101] yielded phosphorylation enrichment of 0.794

GFKVRYATGSI [FGFR1_Y210_W213G_YF] yielded phosphorylation enrichment of 0.651

VKANTYEKYWL [GATM_Y100_P105L] yielded phosphorylation enrichment of 0.733

ITNVLYHVVGW [GBA_Y412_L410V] yielded phosphorylation enrichment of 1.87

AIYEGYALPHA [ACTC1_Y171_P166A] yielded phosphorylation enrichment of 0.789

IDQDKYAVHFI [FLNA_Y2388_R2391H] yielded phosphorylation enrichment of 0.801

IAAEYYDNLPH [DEGS1_Y284] yielded phosphorylation enrichment of 0.98

QPDFLYDHIQP [TRRAP_Y862] yielded phosphorylation enrichment of 1.21

GLPQTYCVSGP [DYSF_Y1684] yielded phosphorylation enrichment of 0.609

Next:
EAVSIYQFHGQ [CBLC_Y402] yielded phosphorylation enrichment of 0.852

SVTCAYSPALN [TP53_Y126_T125A] yielded phosphorylation enrichment of 0.98

TLARLYHPDST [LRIG1_Y1029] yielded phosphorylation enrichment of 0.609

EREYKYGAHNY [OAT_Y50] yielded phosphorylation enrichment of 0.5

EGWQVYRLGTR [MISP_Y95_A99T] yielded phosphorylation enrichment of 0.733

EVDELYREAPI [MYL12B_Y143] yielded phosphorylation enrichment of 1.29

VNCHQYDGLVG [ATP2A2_Y407_E412G] yielded phosphorylation enrichment of 0.736

HFEDGYPGGSD [CTNND1_Y221_YF] yielded phosphorylation enrichment of 0.955

VFSATYHPDHW [EFCAB12_Y544_P541S_YF] yielded phosphorylation enrichment of 0.807

KFEDVYVRICL [B3GALNT1_Y269_G271R] yielded phosphorylation enrichment of 1.28

----------
system: MERTK (UniProt Q12866)
Sequence (Q12866 whole entry, looked up): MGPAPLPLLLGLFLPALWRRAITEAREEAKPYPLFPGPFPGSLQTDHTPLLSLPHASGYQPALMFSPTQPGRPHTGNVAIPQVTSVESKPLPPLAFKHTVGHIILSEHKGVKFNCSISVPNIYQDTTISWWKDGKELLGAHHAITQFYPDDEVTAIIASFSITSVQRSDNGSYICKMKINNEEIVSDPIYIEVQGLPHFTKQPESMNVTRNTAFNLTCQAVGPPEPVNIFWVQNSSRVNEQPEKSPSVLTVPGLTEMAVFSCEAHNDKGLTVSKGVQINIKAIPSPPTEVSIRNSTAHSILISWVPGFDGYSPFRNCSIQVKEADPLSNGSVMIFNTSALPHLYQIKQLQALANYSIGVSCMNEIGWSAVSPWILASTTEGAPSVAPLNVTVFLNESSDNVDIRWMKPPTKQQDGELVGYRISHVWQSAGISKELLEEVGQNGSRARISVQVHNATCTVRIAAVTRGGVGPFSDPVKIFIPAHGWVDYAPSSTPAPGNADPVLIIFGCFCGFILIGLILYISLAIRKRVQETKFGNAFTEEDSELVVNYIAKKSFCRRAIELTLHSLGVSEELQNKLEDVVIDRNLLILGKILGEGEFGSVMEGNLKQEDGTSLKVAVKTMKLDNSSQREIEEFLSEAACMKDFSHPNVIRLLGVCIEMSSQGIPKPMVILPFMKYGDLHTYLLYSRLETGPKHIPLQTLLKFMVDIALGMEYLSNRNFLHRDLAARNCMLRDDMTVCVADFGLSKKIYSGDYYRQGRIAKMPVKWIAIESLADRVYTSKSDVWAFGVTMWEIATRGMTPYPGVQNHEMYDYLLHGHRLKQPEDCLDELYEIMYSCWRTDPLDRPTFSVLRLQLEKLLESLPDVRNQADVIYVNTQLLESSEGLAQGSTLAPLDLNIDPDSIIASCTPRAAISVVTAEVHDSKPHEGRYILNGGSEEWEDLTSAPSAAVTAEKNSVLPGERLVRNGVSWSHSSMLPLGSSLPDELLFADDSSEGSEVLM
experiment: phosphorylation enrichment, bacterial display (enrichment ratio); higher = better substrate or ligand; peptides without Tyr show the background
observed-property: phosphorylation enrichment
No unit in the answer, only the number.

Some sequences with recorded phosphorylation enrichment:
ILGLEYSLRVP [HELZ2_Y1304] yielded phosphorylation enrichment of 0.431

FGAHNYHPLPV [OAT_Y55_YF] yielded phosphorylation enrichment of 1.04

IGMIIYFARKA [VCAM1_Y718] yielded phosphorylation enrichment of 0.374

VDGSVYKLHPS [GCK_Y413] yielded phosphorylation enrichment of 0.424

Let's switch to this sequence now.
VIEYSYTSADG [DHCR7_Y382_C380Y] yielded phosphorylation enrichment of 0.365

----------
system: FGFR1 (UniProt P11362)
Sequence (P11362 whole entry, looked up): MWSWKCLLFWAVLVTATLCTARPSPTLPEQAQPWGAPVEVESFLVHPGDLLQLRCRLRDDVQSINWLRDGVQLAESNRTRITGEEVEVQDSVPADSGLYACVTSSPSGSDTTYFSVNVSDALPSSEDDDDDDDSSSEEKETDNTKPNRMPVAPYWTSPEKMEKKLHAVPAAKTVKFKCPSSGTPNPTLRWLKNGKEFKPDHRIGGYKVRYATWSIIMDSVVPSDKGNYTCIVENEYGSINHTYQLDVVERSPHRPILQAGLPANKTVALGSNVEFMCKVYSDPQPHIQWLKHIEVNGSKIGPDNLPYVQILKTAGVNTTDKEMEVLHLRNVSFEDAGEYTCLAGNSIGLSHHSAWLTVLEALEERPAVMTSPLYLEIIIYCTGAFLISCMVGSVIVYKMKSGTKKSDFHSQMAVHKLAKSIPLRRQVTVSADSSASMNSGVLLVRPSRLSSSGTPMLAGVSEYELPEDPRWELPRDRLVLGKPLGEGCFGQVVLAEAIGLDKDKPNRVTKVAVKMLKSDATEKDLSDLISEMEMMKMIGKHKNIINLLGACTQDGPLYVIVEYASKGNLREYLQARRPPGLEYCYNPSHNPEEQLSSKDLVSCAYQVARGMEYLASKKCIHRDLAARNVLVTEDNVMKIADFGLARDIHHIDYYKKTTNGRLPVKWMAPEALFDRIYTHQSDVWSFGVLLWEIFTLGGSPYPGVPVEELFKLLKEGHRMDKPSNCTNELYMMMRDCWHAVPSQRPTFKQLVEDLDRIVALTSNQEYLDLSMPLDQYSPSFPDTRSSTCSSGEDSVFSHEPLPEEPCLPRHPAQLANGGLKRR
experiment: phosphorylation enrichment, bacterial display (enrichment ratio); higher = better substrate or ligand; peptides without Tyr show the background
observed-property: phosphorylation enrichment
No unit in the answer, only the number.

Some sequences with recorded phosphorylation enrichment:
LPQDGYRIVQH [PTPRT_Y1329_R1324L] yielded phosphorylation enrichment of 0.403

PDMHSYMVRFN [GRIN2D_Y732_YF] yielded phosphorylation enrichment of 0.711

Let's switch to this sequence now.
PPSGEYFGHCG [TRIP6_Y275_Q278H] yielded phosphorylation enrichment of 0.698

----------
Listing of entries alongside the reported phosphorylation enrichment.
Test system: c-Src
experiment: phosphorylation enrichment, bacterial display (enrichment ratio); higher = better substrate or ligand; peptides without Tyr show the background

Some sequences with recorded phosphorylation enrichment:
SFGESYDNSKS [MAN1B1_Y60_N59S] yielded phosphorylation enrichment of 0.508

CTTIPYNYMCN [TP53_Y234_H233P] yielded phosphorylation enrichment of 0.55

FSGQVYRQRRK [TH_Y230_D227G] yielded phosphorylation enrichment of 1.13

Next:
KNSSIYVVANI [VNN1_Y134_N131S] yielded phosphorylation enrichment of 0.691

FGVVGYLAIMF [RNF175_Y155] yielded phosphorylation enrichment of 0.443

TDLAYYLVREG [ASL_Y376_K380E] yielded phosphorylation enrichment of 1.67

LSDGPYSNPYE [EPOR_Y485] yielded phosphorylation enrichment of 3.36

----------
system: Jak2 (UniProt O60674)
experiment: phosphorylation enrichment, bacterial display (enrichment ratio); higher = better substrate or ligand; peptides without Tyr show the background
observed-property: phosphorylation enrichment

Entry PSQRRNVFFFS [PTEN_Y174_Y174N_YF] ; assay system Jak2 (UniProt O60674); phosphorylation enrichment recorded at 0.54

Entry YGSSSYRGAGG [RPA2_Y14_G15R] ; assay system Jak2 (UniProt O60674); phosphorylation enrichment recorded at 0.528

Next:
Entry ECKASYPGKIT [PRSS3_Y232] ; assay system Jak2 (UniProt O60674); phosphorylation enrichment recorded at 0.396

Entry LARNMYDKEFF [MET_Y1230_D1228N_YF] ; assay system Jak2 (UniProt O60674); phosphorylation enrichment recorded at 1

Entry YSIDHYLGKEM [G6PD_Y202_R198S] ; assay system Jak2 (UniProt O60674); phosphorylation enrichment recorded at 0.828

Entry LKVQVYILGRE [ASS1_Y359_G356V] ; assay system Jak2 (UniProt O60674); phosphorylation enrichment recorded at 3.33

Entry VISNAYVDLSP [HSD17B4_Y602_A606S] ; assay system Jak2 (UniProt O60674); phosphorylation enrichment recorded at 0.829

Entry TSSAVYMNLAS [GATAD2B_Y317_I316V] ; assay system Jak2 (UniProt O60674); phosphorylation enrichment recorded at 0.776

Entry TESALYGCTIL [MAP3K21_Y724_V728I] ; assay system Jak2 (UniProt O60674); phosphorylation enrichment recorded at 1.65

Entry DIMDLYNQPEP [IL36A_Y96] ; assay system Jak2 (UniProt O60674); phosphorylation enrichment recorded at 1.55

Entry QADVVYVNTQL [MERTK_Y872_I871V] ; assay system Jak2 (UniProt O60674); phosphorylation enrichment recorded at 0.728

Entry RPSELYFSKIS [SMG1_Y2253_G2258S_YF] ; assay system Jak2 (UniProt O60674); phosphorylation enrichment recorded at 1.06

Entry LTPVKYLLSAT [GSDMC_Y26] ; assay system Jak2 (UniProt O60674); phosphorylation enrichment recorded at 0.433

Entry PESCLYKESWL [IQGAP2_Y630] ; assay system Jak2 (UniProt O60674); phosphorylation enrichment recorded at 2.09

Entry TQKLAYVELQQ [CENPF_Y700_M701V] ; assay system Jak2 (UniProt O60674); phosphorylation enrichment recorded at 0.904

Entry IKGNMYFENSF [EGFR_Y112_R108K_YF] ; assay system Jak2 (UniProt O60674); phosphorylation enrichment recorded at 1.02

Entry KTDKKYLMIEE [BAG3_Y451] ; assay system Jak2 (UniProt O60674); phosphorylation enrichment recorded at 0.96

Entry SAPDSYIRIGN [SLC38A4_Y27_G29R] ; assay system Jak2 (UniProt O60674); phosphorylation enrichment recorded at 0.52

Entry RGKEPYTKKAL [TTC21B_Y160] ; assay system Jak2 (UniProt O60674); phosphorylation enrichment recorded at 0.773

Entry DKEKWYPLGNS [PIK3C2G_Y1438] ; assay system Jak2 (UniProt O60674); phosphorylation enrichment recorded at 0.681

Entry KELSSYKHLTL [SLIT2_Y776_N775S] ; assay system Jak2 (UniProt O60674); phosphorylation enrichment recorded at 0.491

Entry RRIHSYRGHVW [VHL_Y112_L116V] ; assay system Jak2 (UniProt O60674); phosphorylation enrichment recorded at 1.35

Entry IGLHAYGDQFR [IDH1_Y135_R132L_YF] ; assay system Jak2 (UniProt O60674); phosphorylation enrichment recorded at 0.519

Entry PTTMTYFPHFD [HBA1_Y43_K41M] ; assay system Jak2 (UniProt O60674); phosphorylation enrichment recorded at 1.61

----------
Test system: Fer (mouse)
experiment: phosphorylation enrichment, bacterial display (enrichment ratio); higher = better substrate or ligand; peptides without Tyr show the background
observed-property: phosphorylation enrichment
No unit in the answer, only the number.

Some sequences with recorded phosphorylation enrichment:
PLDGGYFTLQI [TP53_Y327_E326G] yielded phosphorylation enrichment of 0.766

AFGGGYGGVLT [KRT19_Y65_YF] yielded phosphorylation enrichment of 0.312

KRELRYMHSRV [ABCD1_Y281_G277R] yielded phosphorylation enrichment of 0.272

Next:
YKIYRYTLNDN [FN1_Y1975_L1974R] yielded phosphorylation enrichment of 0.406

DLVLQYLRVPL [F9_Y371_A366D] yielded phosphorylation enrichment of 0.435

GMAHNYRNSSQ [AASS_Y188] yielded phosphorylation enrichment of 0.384

DFCDLYGGEKF [PTPN11_Y66_Y63C_YF] yielded phosphorylation enrichment of 0.672

KIRDWYQRQRP [KRT14_Y151] yielded phosphorylation enrichment of 0.45

AIQDAYMHITS [ADCY10_Y318] yielded phosphorylation enrichment of 0.497

KIVQDYLEKFF [MMP8_Y36_T32I_YF] yielded phosphorylation enrichment of 0.65

KVKSIYFHTQG [AR_Y916_P914S] yielded phosphorylation enrichment of 0.367

PQAVTYAEVKH [LILRB4_Y360_K362E] yielded phosphorylation enrichment of 0.804

GEAEQYVGGGG [FAT4_Y4980] yielded phosphorylation enrichment of 0.448
